Origin of the recorded values: PubChem BioAssay (NCI)

test system: NCI-H522 lung; assay: NCI-60 one-dose screen, 48 h; conditions: 10 µM unless noted
About 83,000 compounds went through this panel and 20% of them were active in at least one assay; those are over-represented in the sample as a whole. Active and inactive are the calls of the source. How the source made its calls: active means growth percent below 10; inactive means the rest.
Write down the outcome that applies. Available outcomes: active, inactive

Would you please look over these solved cases?
compound	label class
OCc1cccc(-c2ccc3ncc(-c4nc(NC5CC5)ncc4F)n3c2)c1	active
Cn1cc(-c2nc(-c3c[nH]c4ccncc34)cs2)c2ccccc21	inactive
O=C(Nc1ccc(-c2nc(N3CCOCC3)c3cccn3n2)cc1)Nc1cccnc1	active
Cc1nc2sc(C(=O)Nc3ccccc3)c(N)c2cc1C(=O)c1ccccc1	inactive
CO/N=C(/C)c1ccc(NC(=O)CSc2nnc(-c3ccncc3)n2-c2ccccc2)cc1	active
COc1cc(-c2nc(SCCC(C)C)nc(Nc3ccccc3Cl)c2C#N)cc(OC)c1OC	inactive

Entry O=C(O)CNC1=C(Cl)C(=O)c2ccccc2C1=O : call = ?
inactive

Follow-up entry: Nc1ncnc2c1N=C(c1ccc(Cl)cc1)CC(c1ccc3c(c1)OCO3)N2 (centres undefined)
inactive

Follow-up entry: CN(C)CC(=O)Nc1ccc2ncnc(Nc3ccc(Oc4cccc(C(F)(F)F)c4)c(Cl)c3)c2c1
inactive

Follow-up entry: C/C(Nc1ccc(Cl)c(Cl)c1)=C1\CCOC1=O
inactive

Follow-up entry: O=C(/C=C/c1cccs1)c1ccc(Cl)nc1
inactive

Follow-up entry: CCCCC[C@@H]1Cc2cc(O)c(C(=O)O)c3c2[C@H](C[C@]2(OC[C@@H](CC(=O)[C@@](C)(CC)C(=O)OC)[C@@H]2C)O3)O1
inactive

Follow-up entry: O=C(CI)NC1Oc2ccccc2-c2oc(=O)c(-c3ccccc3)cc21 (centres undefined)
active

Follow-up entry: Cc1ccc(Cl)cc1Nc1nc(C(F)(F)F)ccc1C(=O)N/N=C/c1cccnc1
active

Follow-up entry: Brc1ccc(-n2cc(-c3nn[nH]n3)c(-c3cccs3)n2)cc1
inactive
